Tested on: A-431
ASSAY_SUMMARY: cells
Type: functional, cell-based
EXPERIMENTAL_PARAMETERS: Homo sapiens, A-431, 72 h
Description: Cytotoxicity against human A431 cells expressing EGFR after 72 hrs by MTT assay
pIC50: −log10 of the molar value.
QUANTITY_MEASURED: pIC50

Use the examples below as a reference point.
C#Cc1cccc(Nc2ncnc3cc4c(cc23)N(C(=O)/C=C/CN(C)C)CCO4)c1 ... 6.64
C#Cc1cccc(Nc2ncnc3cc4c(cc23)N(C(=O)/C=C/CN2CCN(C)CC2)CCO4)c1 ... 6.32
C#Cc1cccc(Nc2ncnc3cc4c(cc23)N(C(=O)/C=C/CN(CC)CC)CCO4)c1 ... 6.72
C#Cc1cccc(Nc2ncnc3cc4c(cc23)N(C(=O)/C=C/CN2CCC(C)CC2)CCO4)c1 ... 6.40
C#Cc1cccc(Nc2ncnc3cc4c(cc23)N(C(=O)/C=C/CN(C)C)CCCO4)c1 ... 5.76

[a] C#Cc1cccc(Nc2ncnc3cc4c(cc23)N(C(=O)/C=C/CN2CCCCC2)CCO4)c1
[b] C#Cc1cccc(Nc2ncnc3cc4c(cc23)N(C(=O)/C=C/CN(CC)CC)CCCO4)c1
**Query** Field: entry with larger pIC50 (options a / b ). Please respond with the label that marks your chosen entry.
**Result** a
(a: 6.47, b: 5.67)

The measurements presented in this section are drawn from ChEMBL document CHEMBL3112407.
